measurement.target: LNX1_2, Q8TBB1
Sequence (Q8TBB1 371-470): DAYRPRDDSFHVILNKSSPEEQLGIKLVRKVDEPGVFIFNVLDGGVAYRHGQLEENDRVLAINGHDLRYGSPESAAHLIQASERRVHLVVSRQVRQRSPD
protocol.notes: holdup assay
Design: key: below the threshold = too weak to quantify, mostly under pKd 3.1 to 4
assay.setup: plain residues with an end cap or a label only (N-terminal biotin on a linker: ado-ado)
attribute.measured: pKd

Before answering, review these 5 worked examples.
(Q) Requested read-out: pKd. Entry: TPPAAKKSRI [BAZ1A, Q9NRL2]
(A) below the threshold

(Q) Requested read-out: pKd. Entry: ETQVTAETVI [TMEM225B, P0DP42]
(A) below the threshold

(Q) Requested read-out: pKd. Entry: AKPSRISTVV [IQSEC2, Q5JU85]
(A) 3.52

(Q) Requested read-out: pKd. Entry: RHGSCVETSL [TMEM151B, Q8IW70]
(A) below the threshold

(Q) Requested read-out: pKd. Entry: QGPVETESVV [SLC45A4, Q5BKX6]
(A) below the threshold

Continuing:
(Q) Requested read-out: pKd. Entry: EVNETDDTKM [KCNJ1, P48048]
(A) below the threshold

(Q) Requested read-out: pKd. Entry: EVEEFPETSV [TRPV3, Q8NET8]
(A) 3.59

(Q) Requested read-out: pKd. Entry: LRSPRTPSEV [OR10G3, Q8NGC4]
(A) below the threshold

Recorded values, source paper PMC9482650.
